System: paddy rice
Test: whole plant or invertebrate
Type: in vivo, paddy rice (Asahi species)
Settings: Oryza sativa, 720 h; 900 g/10 are, granule, rice at 3.5 leaves stage, 30 days; read-out: Inhibition (%) by treatment at 1-leaf stage of E. crus-galli var. oryzicola, paddy rice
Items are presented alongside their recorded inhibition at 9000 g/ha.
Reply with a number, then the unit it belongs to.

Solved entries:
> print(dat)
                                   molecule  result
1  C/C=C/COc1ccc(NC(=O)N(C)C)cc1 [trans-form]      0%
2  C/C=C\COc1ccc(NC(=O)N(C)C)cc1 [cis-form]      0%
3  CC=CCOc1ccc(NC(=O)N(C)C)cc1 [Mixture of trans- and cis-forms 1:1]      0%

For the next question, use this molecule.
Would you mind telling me what inhibition at 9000 g/ha value was observed for O=[N+]([O-])c1ccc(Oc2c(Cl)cc(Cl)cc2Cl)cc1 ?
52%

====

System: Umbrella plant
Test: Test Example 5: Wagner pot test, herbicidal effect on umbrella plant
Assay type: in vivo
Settings: 600 g/10a, leaf age 2 (first group of columns), 20 days after application
EXPERIMENTAL_ENDPOINT: Weed kill degree, Umbrella plant

The examples below pair each entry with its known result.
> print(dat)
                                   compound   result
1               CN(C)C(=O)Nc1ccc(Cl)c(Cl)c1  5 (100)
2  CC=CCOc1ccc(NC(=O)N(C)C)cc1 [Mixture of trans- and cis-forms 1:1]  5 (100)
3  CCN(CC)C(=O)SCc1ccc(Cl)cc1 [Benthiocarb, 4-chlorobenzyl-N,N-diethylthiolcarbamate]  5 (100)
4  C/C=C\COc1ccc(NC(=O)N(C)C)cc1 [cis-form]  5 (100)
5  C/C=C/COc1ccc(NC(=O)N(C)C)cc1 [trans-form]  5 (100)

Could you now consider this next compound?
What measured Weed kill degree, Umbrella plant goes with CCSC(=O)N1CCCCCC1 [Molinate] ?
1 (40-59)

====

This listing pairs molecules with measured Inhibition (%) by treatment at 1-leaf stage, paddy rice.
Test system: paddy rice
Experiment: Test Example 1: pot test on selectivity, inhibition of paddy rice
Assay type: in vivo
Conditions: 300 g/10 are, 1-leaf stage, dry weight 30 days after treatment
Expressed in %, but write only the number.

Example entries and their recorded answers appear below.
> print(dat)
                                   molecule  measured.number
1  CC=CCOc1ccc(NC(=O)N(C)C)cc1 [Mixture of trans- and cis-forms 1:4]                0
2  CNC(=O)Nc1ccc(OCC=C(C)Cl)cc1 [Comparative chemical B]               36
3  CC(Cl)=CCOc1ccc(NC(=O)N(C)C)cc1 [Comparative chemical A]                0

Moving on to another molecule below.
Any idea what its Inhibition (%) by treatment at 1-leaf stage, paddy rice is? The molecule is CC=CCOc1ccc(NC(=O)N(C)C)cc1 [Mixture of trans- and cis-forms 1:1]
0

====

Reported inhibition at 3000 g/ha by item:
Tested on: Echinochloa crus-galli var. oryzicola
Assay: Test Example 2: concrete pot test on killing effect, Echinochloa crus-galli var. oryzicola
Assay type: in vivo
Conditions: Echinochloa crus-galli, 720 h; 300 g/10 are, granule, 30 days after treatment; read-out: Inhibition (%) by treatment at 1-leaf stage of E. crus-galli var. oryzicola, E. crus-galli var. oryzicola
Just the number please, in %, no unit attached.

Some molecules with known inhibition at 3000 g/ha results, for comparison:
> print(dat)
                                   molecule    experimental.endpoint  measured.number
1  C/C=C/COc1ccc(NC(=O)N(C)C)cc1 [trans-form]  inhibition at 3000 g/ha              100
2  C/C=C\COc1ccc(NC(=O)N(C)C)cc1 [cis-form]  inhibition at 3000 g/ha              100
3  O=[N+]([O-])c1ccc(Oc2c(Cl)cc(Cl)cc2Cl)cc1  inhibition at 3000 g/ha              100

Turning to the following molecule.
Which measured inhibition at 3000 g/ha value corresponds to CC=CCOc1ccc(NC(=O)N(C)C)cc1 [Mixture of trans- and cis-forms 1:1] ?
100

====

Test system: Echinochloa crus-galli var. oryzicola
Test: Test Example 2: concrete pot test on killing effect, Echinochloa crus-galli var. oryzicola
Type: in vivo
Settings: Echinochloa crus-galli, 720 h; 900 g/10 are, granule, 30 days after treatment; read-out: Inhibition (%) by treatment at 5-leaf stage of E. crus-galli var. oryzicola, E. crus-galli var. oryzicola
Method: In a Wagner pot of 1/500 are, paddy field soil (alluvial soil) was placed and 50 seeds of Echinochloa crus-galli var. oryzicola and 30 seeds of paddy rice were seeded in the surface layer of said soil and the submerging depth was kept at about 1 cm. […] After 30 days from the treatment with the chemical, dry weights of Echinochloa crus-galli var. oryzicola and paddy rice were measured and the inhibition rate was calculated with reference to untreated area. […]
EXPERIMENTAL_ENDPOINT: inhibition at 9000 g/ha (%)
Hi! Could you send only the number? It should be in %, unit omitted.

Recorded inhibition at 9000 g/ha, per entry:
> print(dat)
                                   compound    experimental.endpoint  unit.of.measurement  measured.number
1  O=[N+]([O-])c1ccc(Oc2c(Cl)cc(Cl)cc2Cl)cc1 [CNP]  inhibition at 9000 g/ha                    %                0
2  CC=CCOc1ccc(NC(=O)N(C)C)cc1 [Mixture of trans- and cis-forms 1:1]  inhibition at 9000 g/ha                    %              100
3  C/C=C\COc1ccc(NC(=O)N(C)C)cc1 [cis-form]  inhibition at 9000 g/ha                    %              100

Now turn to the next compound.
Recorded inhibition at 9000 g/ha for C/C=C/COc1ccc(NC(=O)N(C)C)cc1 [trans-form] with Echinochloa crus-galli var. oryzicola, please?
100

====

Tested on: Echinochloa crus-galli var. oryzicola
Test: Test Example 4: field test in submerged directly seeded paddy field, Echinochloa crus-galli var. oryzicola
Assay type: in vivo
Conditions: Echinochloa crus-galli, 504 h; 300 g/10 are, emulsion, 2- to 3-leaf stage, 21 days after application; read-out: Inhibition (%) of E. crus-galli var. oryzicola
EXPERIMENTAL_ENDPOINT: inhibition at 3000 g/ha (%)
Answer format: numeric, % implied, no suffix.

Solved cases (4 shown):
> print(dat)
                                   compound  unit.of.measurement  measured.number
1  CC=CCOc1ccc(NC(=O)N(C)C)cc1 [Mixture of trans- and cis-forms 1:1]                    %              100
2              CCSC(=O)N1CCCCCC1 [Molinate]                    %               83
3  CCN(CC)C(=O)SCc1ccc(Cl)cc1 [Benthiocarb, 4-chlorobenzyl-N,N-diethylthiolcarbamate]                    %               76
4  C/C=C/COc1ccc(NC(=O)N(C)C)cc1 [trans-form]                    %              100

Param item = C/C=C\COc1ccc(NC(=O)N(C)C)cc1 [cis-form] ; retrieve measured inhibition at 3000 g/ha.
100

====

Tested on: Bulrush
Test: Test Example 5: Wagner pot test, herbicidal effect on Bulrush
Format: in vivo
Details: 600 g/10a, leaf age 3-5, 20 days after application
Weed kill degree, Bulrush values, listed per item

Use the examples below as a reference point.
> print(dat)
                                   molecule      experimental.endpoint     result
1  CC=CCOc1ccc(NC(=O)N(C)C)cc1 [Mixture of trans- and cis-forms 1:1]  Weed kill degree, Bulrush    5 (100)
2              CCSC(=O)N1CCCCCC1 [Molinate]  Weed kill degree, Bulrush  2 (60-79)
3  CCN(CC)C(=O)SCc1ccc(Cl)cc1 [Benthiocarb, 4-chlorobenzyl-N,N-diethylthiolcarbamate]  Weed kill degree, Bulrush  4 (90-99)
4  C/C=C/COc1ccc(NC(=O)N(C)C)cc1 [trans-form]  Weed kill degree, Bulrush    5 (100)
5               CN(C)C(=O)Nc1ccc(Cl)c(Cl)c1  Weed kill degree, Bulrush    5 (100)

With those in mind, consider the next molecule.
Could you tell me which Weed kill degree, Bulrush is on file for C/C=C\COc1ccc(NC(=O)N(C)C)cc1 [cis-form] ?
5 (100)

====

Tested on: Bulrush
Assay: Test Example 5: Wagner pot test, herbicidal effect on Bulrush
Assay type: in vivo
Settings: 300 g/10a, leaf age 3-5, 20 days after application
EXPERIMENTAL_ENDPOINT: Weed kill degree, Bulrush

> print(dat)
                                   compound     result
1  C/C=C\COc1ccc(NC(=O)N(C)C)cc1 [cis-form]    5 (100)
2              CCSC(=O)N1CCCCCC1 [Molinate]  1 (40-59)
3  CC=CCOc1ccc(NC(=O)N(C)C)cc1 [Mixture of trans- and cis-forms 1:1]    5 (100)

// Weed kill degree, Bulrush lookup, key: CN(C)C(=O)Nc1ccc(Cl)c(Cl)c1 [DCMU, 3-(3,4-dichlorophenyl)-1,1-dimethyl urea]
5 (100)

Endpoint output: Weed kill degree, Bulrush of C/C=C/COc1ccc(NC(=O)N(C)C)cc1 [trans-form] . Value?
5 (100)
